As shown below, each of these compounds has a reported Activity value.
TARGET ENTITY: Lanosterol synthase (Homo sapiens)
METHOD: Inhibitory activity against lanosteral synthase at 0.25 umol/assay
Design: scale not given: the % may be the effect or the level left
READOUT NAME: Activity (%)

- CC/C=C\C/C=C\C/C=C\CCCCCCCC(=O)OCC(CO[C@@H]1O[C@H](CO[C@H]2O[C@H](CO)[C@H](O)C(O)[C@H]2O)[C@H](O)C(O)[C@H]1O)OC(=O)CCCCCCC/C=C/CCCCCCCC (single isomer, unassigned): 8
- CCCCCCCC/C=C/CCCCCCCC(=O)OCC(CO[C@@H]1O[C@H](CO[C@H]2O[C@H](CO)[C@H](O)C(O)[C@H]2O)[C@H](O)C(O)[C@H]1O)OC(=O)CCCCCCC/C=C/CCCCCCCC (single isomer, unassigned): 42
- CC/C=C\C/C=C\C/C=C\CCCCCCCC(=O)OCC(CO[C@@H]1O[C@H](CO[C@H]2O[C@H](CO)[C@H](O)C(O)[C@H]2O)[C@H](O)C(O)[C@H]1O)OC(=O)CCCCCCC/C=C\CCCCCC (single isomer, unassigned; 2l): 5
- CC/C=C\C/C=C\C/C=C\CCCCCCCC(=O)OC(COC(=O)CCCCCCC/C=C/CCCCCCCC)CO[C@@H]1O[C@H](CO[C@H]2O[C@H](CO)[C@H](O)C(O)[C@H]2O)[C@H](O)C(O)[C@H]1O (single isomer, unassigned; 2f): 9

----------
TARGET ENTITY: Lanosterol synthase (Homo sapiens) (UniProt P48449)
Sequence (whole entry): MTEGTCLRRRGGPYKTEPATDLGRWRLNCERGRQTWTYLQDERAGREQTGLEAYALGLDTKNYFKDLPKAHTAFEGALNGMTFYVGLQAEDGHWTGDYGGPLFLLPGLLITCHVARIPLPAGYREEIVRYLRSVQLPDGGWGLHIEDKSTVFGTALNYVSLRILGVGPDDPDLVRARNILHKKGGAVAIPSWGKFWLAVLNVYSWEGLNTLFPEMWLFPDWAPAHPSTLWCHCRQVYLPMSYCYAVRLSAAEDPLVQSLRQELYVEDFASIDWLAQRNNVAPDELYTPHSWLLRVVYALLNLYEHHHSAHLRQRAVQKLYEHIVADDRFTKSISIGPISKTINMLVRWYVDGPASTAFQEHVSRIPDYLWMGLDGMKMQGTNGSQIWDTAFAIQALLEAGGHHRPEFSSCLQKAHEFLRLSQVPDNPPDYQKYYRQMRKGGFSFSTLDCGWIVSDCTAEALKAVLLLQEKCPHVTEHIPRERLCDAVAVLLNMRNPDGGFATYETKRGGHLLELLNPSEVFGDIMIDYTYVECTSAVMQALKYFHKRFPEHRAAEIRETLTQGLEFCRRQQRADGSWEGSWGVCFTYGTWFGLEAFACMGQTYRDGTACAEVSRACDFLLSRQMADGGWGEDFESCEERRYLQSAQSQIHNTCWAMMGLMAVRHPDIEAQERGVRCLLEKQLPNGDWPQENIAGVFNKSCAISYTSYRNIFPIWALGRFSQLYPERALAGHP
METHOD: Inhibitory activity against lanosteral synthase at 0.5 umol/assay
Design: scale not given: the % may be the effect or the level left
Each record is given MET if its reported Activity is strictly below 40%. Records at or above 40% are given NOT MET.

• CCCCCC/C=C\CCCCCCCC(=O)OCC(CO[C@@H]1O[C@H](CO[C@H]2O[C@H](CO)[C@H](O)[C@H](O)[C@H]2O)[C@H](O)[C@H](O)[C@H]1O)OC(=O)CCCCCCC/C=C\CCCCCC (stereo not given in full) = MET
• CCCCCC/C=C\CCCCCCCC(=O)OC(COC(=O)CCCCCCCCCCCCC)CO[C@@H]1OC(CO[C@H]2OC(CO)[C@H](O)[C@@H](O)C2O)[C@H](O)[C@@H](O)C1O (stereo not given in full) = NOT MET
• CC/C=C\C/C=C\C/C=C\CCCCCCCC(=O)OCC(CO[C@@H]1OC(CO[C@H]2OC(CO)[C@H](O)[C@@H](O)C2O)[C@H](O)[C@@H](O)C1O)OC(=O)CCCCCCCCCCCCC (stereo not given in full) = MET
• CCCCCC/C=C\CCCCCCCC(=O)OCC(CO[C@@H]1O[C@H](CO[C@H]2O[C@H](CO)[C@H](O)[C@H](O)[C@H]2O)[C@H](O)[C@H](O)[C@H]1O)OC(=O)CCCCCCC/C=C/CCCCCCCC (stereo not given in full) = MET
• CC/C=C\C/C=C\C/C=C\CCCCCCCC(=O)OC(COC(=O)CCCCCCC/C=C/CCCCCCCC)CO[C@@H]1O[C@H](CO[C@H]2O[C@H](CO)[C@H](O)C(O)[C@H]2O)[C@H](O)C(O)[C@H]1O (single isomer, unassigned; 2i) = MET
• CC/C=C\C/C=C\C/C=C\CCCCCCCC(=O)OCC(CO[C@@H]1O[C@H](CO[C@H]2O[C@H](CO)[C@H](O)C(O)[C@H]2O)[C@H](O)C(O)[C@H]1O)OC(=O)CCCCCCC/C=C\CCCCCC (single isomer, unassigned; 2j) = MET
• CCCCCCCC/C=C/CCCCCCCC(=O)OCC(CO[C@@H]1O[C@H](CO[C@H]2O[C@H](CO)[C@H](O)C(O)[C@H]2O)[C@H](O)C(O)[C@H]1O)OC(=O)CCCCCCC/C=C/CCCCCCCC (single isomer, unassigned) = NOT MET
• CCCCCC/C=C/CCCCCCCC(=O)OC(COC(=O)CCCCCCC/C=C/CCCCCCCC)CO[C@@H]1O[C@H](COC2O[C@H](CO)[C@H](O)C(O)[C@H]2O)[C@H](O)C(O)[C@H]1O (single isomer, unassigned) = NOT MET
• CC/C=C\C/C=C\C/C=C\CCCCCCCC(=O)OCC(CO[C@@H]1O[C@H](CO[C@H]2O[C@H](CO)[C@H](O)C(O)[C@H]2O)[C@H](O)C(O)[C@H]1O)OC(=O)CCCCCCC/C=C\C/C=C\C/C=C\CC (single isomer, unassigned; 2d) = NOT MET
• CC/C=C\C/C=C\C/C=C\CCCCCCCC(=O)OCC(CO[C@@H]1O[C@H](CO[C@H]2O[C@H](CO)[C@H](O)C(O)[C@H]2O)[C@H](O)C(O)[C@H]1O)OC(=O)CCCCCCC/C=C\CCCCCC (single isomer, unassigned; 2l) = MET
• CC/C=C\C/C=C\C/C=C\CCCCCCCC(=O)OCC(CO[C@@H]1O[C@H](CO[C@H]2O[C@H](CO)[C@H](O)C(O)[C@H]2O)[C@H](O)C(O)[C@H]1O)OC(=O)CCCCCCC/C=C/CCCCCCCC (single isomer, unassigned) = MET
• CC/C=C\C/C=C\C/C=C\CCCCCCCC(=O)OCC(CO[C@@H]1O[C@H](CO[C@H]2O[C@H](CO)[C@H](O)C(O)[C@H]2O)[C@H](O)C(O)[C@H]1O)OC(=O)CCCCCCC/C=C\C/C=C\C/C=C\CC (single isomer, unassigned; 2k) = MET
• CC/C=C\C/C=C\C/C=C\CCCCCCCC(=O)OC(COC(=O)CCCCCCC/C=C\CCCCCC)CO[C@@H]1O[C@H](CO[C@H]2O[C@H](CO)[C@H](O)[C@H](O)[C@H]2O)[C@H](O)[C@H](O)[C@H]1O (stereo not given in full) = MET
• CCCCCCCCCCCCCC(=O)OCC(CO[C@@H]1O[C@H](CO[C@H]2O[C@H](CO)[C@H](O)C(O)[C@H]2O)[C@H](O)C(O)[C@H]1O)OC(=O)CCCCCCCCCCCCC (single isomer, unassigned) = NOT MET
